Collected IC50 for PIK3CD (Human) across several studies; molecules listed below.

Request: For PIK3CD (Human), provide IC50 of Nc1ncnc2c1c(-c1cccc(O)c1)nn2Cc1cc2cccc(Cl)c2c(=O)n1C1CC1 please.
Response: < 0.1 µM

Request: Lookup: IC50 / PIK3CD (Human) / Cc1nn(C(C)c2cc(Cl)c(F)c3c2OC[C@H](C)N(S(C)(=O)=O)C3)c2ncnc(N)c12 (single isomer, unassigned)
Response: 0.5 to 1 µM

Request: Tell me reported IC50 for COc1cc(-c2cccc3cc([C@H](C)NC(=O)c4c(N)nn5cccnc45)n(C4CC4)c(=O)c23)ccn1 , tested with PIK3CD (Human).
Response: 1 to 10 µM

Request: State its IC50 on PIK3CD (Human): CC(=O)Nc1nc2cc(-c3nn(Cc4cc5cccc(C)c5c(=O)n4-c4ccccc4)c4ncnc(N)c34)ccc2o1
Response: < 1 µM
